# PROCEDURE TEXT: in vitro
# CONDITION LABEL: dog, MDCK-MDR1
ASSAY METRIC: efflux ratio
# answer = number (no unit)

Data request, read-out efflux ratio, for Cc1c(CN(C)C(=O)/C=C/c2cnc3c(c2)CC[C@H](N)C(=O)N3)oc2ccccc12 [(S)-11]
9.4

---

# Tested on: H. sapiens HFF-1
# PROCEDURE TEXT: In-vitro cytotoxicity
# Format: cell-based
# CONDITION LABEL: cytotoxicity
ASSAY METRIC: pIC50
Reminder that pIC50 means the negative base-10 logarithm of the concentration expressed in mol/L.

• Cc1c(CN(C)C(=O)/C=C/c2cnc3c(c2)CC(N)C(=O)N3)oc2ccccc12 (racemic) [Debio-1452-NH3] = 4.20
• Cc1c(CN(C)C(=O)/C=C/c2cnc3c(c2)CC[C@H](N)C(=O)N3)oc2ccccc12 [(S)-11] = 3.95

For Cc1c(CN(C)C(=O)/C=C/c2cnc3c(c2)CCC(=O)N3)oc2ccccc12 [Debio-1452, reference compound] , what is its reported pIC50?
3.78

---

# PROCEDURE TEXT: in vitro
# CONDITION LABEL: mouse, plasma
ASSAY METRIC: fraction unbound
// return just the number, without any unit appended

Report fraction unbound for Cc1c(CN(C)C(=O)/C=C/c2cnc3c(c2)CCC(=O)N3)oc2ccccc12 [Debio-1452, reference compound] please.
0.006

---

Here, each record is paired with measured MIC K. pneumoniae AR 0560 data.
# Tested on: K. pneumoniae AR 0560
# PROCEDURE TEXT: microbe, parasite or virus in culture
# Type: cell-based
# CONDITION LABEL: clinical isolate
Please give a number only; it is taken to be in µg/mL.

- Cc1c(CN(C)C(=O)/C=C/c2cnc3c(c2)CC2(CNC2)C(=O)N3)oc2ccccc12 [drawing 106]: 16
- Cc1c(CN(C)C(=O)/C=C/c2ccc3c(c2)CCC(N)C(=O)N3)oc2ccccc12 (single isomer, unassigned) [Isomer 2]: 4

Now take the following molecule into account.
Please tell me: MIC K. pneumoniae AR 0560 of Cc1c(CN(C)C(=O)/C=C/c2cnc3c(c2)CCC(CN)C(=O)N3)oc2ccccc12 (racemic) [(±)-12] , system K. pneumoniae AR 0560?
16

---

# TARGET OR SYSTEM: E. coli FabI (Escherichia coli (strain K12), UniProt P0AEK4)
# Sequence (P0AEK4 whole entry): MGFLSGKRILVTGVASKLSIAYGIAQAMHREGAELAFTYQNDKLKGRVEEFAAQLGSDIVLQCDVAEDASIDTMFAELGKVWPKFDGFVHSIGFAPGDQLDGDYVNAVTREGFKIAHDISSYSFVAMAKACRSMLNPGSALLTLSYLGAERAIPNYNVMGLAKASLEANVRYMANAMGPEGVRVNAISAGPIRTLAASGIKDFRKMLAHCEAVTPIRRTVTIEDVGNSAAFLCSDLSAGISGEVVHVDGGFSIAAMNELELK
# PROCEDURE TEXT: In vitro FabI inhibition assay
ASSAY METRIC: Ki (nM)
Answer in nM, number only, no unit symbol.

Given Cc1c(CN(C)C(=O)/C=C/c2cnc3c(c2)CC(N)C(=O)N3)oc2ccccc12 (racemic) [Debio-1452-NH3] , state its recorded Ki.
3.5

---

# TARGET OR SYSTEM: A. baumannii FabI (Acinetobacter baumannii, UniProt D0CAD5)
# Sequence (D0CAD5 1-288): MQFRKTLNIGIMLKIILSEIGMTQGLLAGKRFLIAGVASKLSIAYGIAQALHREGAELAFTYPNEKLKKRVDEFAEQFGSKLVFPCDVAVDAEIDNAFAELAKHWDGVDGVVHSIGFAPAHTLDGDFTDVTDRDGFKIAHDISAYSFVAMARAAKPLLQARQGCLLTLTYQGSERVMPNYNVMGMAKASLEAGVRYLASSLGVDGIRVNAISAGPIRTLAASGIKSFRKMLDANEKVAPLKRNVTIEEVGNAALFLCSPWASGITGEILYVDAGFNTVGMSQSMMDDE
# PROCEDURE TEXT: biochemical
ASSAY METRIC: Ki

What value of Ki has been recorded for this entry: Cc1c(CN(C)C(=O)/C=C/c2cnc3c(c2)CC(N)C(=O)N3)oc2ccccc12 (racemic) [Debio-1452-NH3]
114 nM

---

Reported values of MIC K. pneumoniae AR 0560 for individual entries
# Test system: K. pneumoniae AR 0560
# PROCEDURE TEXT: microbe, parasite or virus in culture
# Assay type: cell-based
# CONDITION LABEL: clinical isolate
Number in µg/mL, nothing else.

Record excerpt, results attached:
- Cc1c(CN(C)C(=O)/C=C/c2cnc3c(c2)CC2(CC(CN)C2)C(=O)N3)oc2ccccc12 (stereo not shown): 32
- Cc1c(CN(C)C(=O)/C=C/c2cnc3c(c2)CCC(CN)C(=O)N3)oc2ccccc12 (stereo not shown): 16
- Cc1c(CN(C)C(=O)/C=C/c2cnc3c(c2)CC2(CNC2)C(=O)N3)oc2ccccc12 [Compound 5]: 16
- Cc1c(CN(C)C(=O)/C=C/c2cnc3c(c2)CCC(N)C(=O)N3)oc2ccccc12 (racemic) [(±)-11]: 8

Pending compound:
Query: MIC K. pneumoniae AR 0560; subject: Cc1c(CN(C)C(=O)C=Cc2cnc3c(c2)CC2(CC(N)C2)C(=O)N3)oc2ccccc12 (mixture of isomers) [(±)-6]
8

---

# PROCEDURE TEXT: in vitro
# CONDITION LABEL: human, plasma
ASSAY METRIC: fraction unbound

Need fraction unbound, item Cc1c(CN(C)C(=O)/C=C/c2cnc3c(c2)CCC(=O)N3)oc2ccccc12 [Debio-1452, reference compound]
0.019

---

Reported MIC E. coli AR 0085 values follow for various compounds
# System: E. coli AR 0085
# PROCEDURE TEXT: microbe, parasite or virus in culture
# Format: cell-based
# CONDITION LABEL: clinical isolate
# Procedure: Antimicrobial susceptibility tests. Susceptibility testing was performed in biological triplicate, using the micro-dilution broth method as outlined by the Clinical and Laboratory Standards Institute. Bacteria were cultured with cation-adjusted Muller-Hinton broth (Sigma-Aldrich, Cat# 90922) in round-bottom 96-well plates (Corning, Cat# 3788). Human serum (pooled gender, 0.2 μm filtered) was purchased from BioIVT (Hicksville, NY).
Supply the numeric figure in µg/mL, leaving out any unit text.

As a guide, the following entries are already answered.
- Cc1c(CN(C)C(=O)C=Cc2cnc3c(c2)CC2(CC(N)C2)C(=O)N3)oc2ccccc12 (mixture of isomers) [(±)-6]: 16
- Cc1c(CN(C)C(=O)/C=C/c2ccc3c(c2)CCC(N)C(=O)N3)oc2ccccc12 (single isomer, unassigned) [Isomer 2]: 2
- Cc1c(CN(C)C(=O)/C=C/c2cnc3c(c2)CC2(CNC2)C(=O)N3)oc2ccccc12 [Compound 5]: 4
- Cc1c(CN(C)C(=O)/C=C/c2cnc3c(c2)CC2(CNC2)C(=O)N3)oc2ccccc12 [drawing 106]: 4
- Cc1c(CN(C)C(=O)/C=C/c2cnc3c(c2)CCC(CN)C(=O)N3)oc2ccccc12 (stereo not shown): 16
- Cc1c(CN(C)C(=O)/C=C/c2cnc3c(c2)CCC(N)C(=O)N3)oc2ccccc12 (racemic) [(±)-11]: 4
- Cc1c(CN(C)C(=O)/C=C/c2cnc3c(c2)CC2(CC(CN)C2)C(=O)N3)oc2ccccc12 (stereo not shown): 16
- Cc1c(CN(C)C(=O)/C=C/c2cnc3c(c2)CCC(CN)C(=O)N3)oc2ccccc12 (racemic) [(±)-12]: 8

Form entry - test system: E. coli AR 0085; read-out: MIC E. coli AR 0085; compound: Cc1c(CN(C)C(=O)/C=C/c2cnc3c(c2)CC(CCNC(=O)OC(C)(C)C)C(=O)N3)oc2ccccc12 (stereo not shown)
8

---

# TARGET OR SYSTEM: CYP 1A2 (Homo sapiens (Human), UniProt P05177)
# Sequence (P05177 whole entry): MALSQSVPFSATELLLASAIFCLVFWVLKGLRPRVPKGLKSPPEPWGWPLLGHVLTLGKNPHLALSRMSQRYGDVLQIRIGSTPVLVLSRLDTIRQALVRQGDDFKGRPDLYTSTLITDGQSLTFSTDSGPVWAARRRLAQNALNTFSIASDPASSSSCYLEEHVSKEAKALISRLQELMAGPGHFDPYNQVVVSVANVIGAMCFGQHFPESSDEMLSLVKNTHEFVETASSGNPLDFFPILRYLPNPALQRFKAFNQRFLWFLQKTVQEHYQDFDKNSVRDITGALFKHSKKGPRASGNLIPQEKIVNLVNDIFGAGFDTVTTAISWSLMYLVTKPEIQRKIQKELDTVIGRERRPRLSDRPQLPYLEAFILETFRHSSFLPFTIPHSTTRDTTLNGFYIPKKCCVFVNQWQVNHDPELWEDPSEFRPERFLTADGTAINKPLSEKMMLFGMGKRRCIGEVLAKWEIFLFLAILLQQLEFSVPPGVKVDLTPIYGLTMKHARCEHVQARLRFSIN
ASSAY METRIC: pIC50
The meaning of pIC50 here: minus log10 of the concentration in molar units.

Look at this compound and give its reported pIC50. Cc1c(CN(C)C(=O)/C=C/c2cnc3c(c2)CC[C@H](N)C(=O)N3)oc2ccccc12 [(S)-11]
4.51

---

# TARGET OR SYSTEM: CYP 2C19 (Homo sapiens (Human), UniProt P33261)
# Sequence (P33261 whole entry): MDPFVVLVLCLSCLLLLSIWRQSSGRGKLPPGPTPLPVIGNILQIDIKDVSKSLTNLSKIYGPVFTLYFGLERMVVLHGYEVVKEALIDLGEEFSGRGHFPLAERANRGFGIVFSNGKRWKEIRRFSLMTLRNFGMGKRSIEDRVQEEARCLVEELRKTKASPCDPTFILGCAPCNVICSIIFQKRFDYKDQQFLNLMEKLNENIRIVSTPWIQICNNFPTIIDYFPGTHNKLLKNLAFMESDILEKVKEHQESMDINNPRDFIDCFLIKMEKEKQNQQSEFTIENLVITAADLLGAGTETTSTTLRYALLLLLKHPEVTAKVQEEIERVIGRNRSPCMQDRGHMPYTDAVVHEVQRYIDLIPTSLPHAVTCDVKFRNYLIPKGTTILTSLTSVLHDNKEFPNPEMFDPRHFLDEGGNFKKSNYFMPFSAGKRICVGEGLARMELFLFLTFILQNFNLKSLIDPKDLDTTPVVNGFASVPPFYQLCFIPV
ASSAY METRIC: IC50 (µM)
Quick note: give the figure in µM, leave out the unit.

Tell me reported IC50 for Cc1c(CN(C)C(=O)/C=C/c2cnc3c(c2)CC[C@H](N)C(=O)N3)oc2ccccc12 [(S)-11] , tested with CYP 2C19 (Homo sapiens (Human), UniProt P33261).
60

---

# Tested on: A. baumannii AR 0313
# PROCEDURE TEXT: microbe, parasite or virus in culture
# Format: cell-based
# CONDITION LABEL: clinical isolate
# Experimental: Antimicrobial susceptibility tests. Susceptibility testing was performed in biological triplicate, using the micro-dilution broth method as outlined by the Clinical and Laboratory Standards Institute. Bacteria were cultured with cation-adjusted Muller-Hinton broth (Sigma-Aldrich, Cat# 90922) in round-bottom 96-well plates (Corning, Cat# 3788). Human serum (pooled gender, 0.2 μm filtered) was purchased from BioIVT (Hicksville, NY).
Here the recorded MIC A. baumannii AR 0313 is given for each entry.
All answers are understood in µg/mL, so give the number only.

• Cc1c(CN(C)C(=O)/C=C/c2ccc3c(c2)CCC(N)C(=O)N3)oc2ccccc12 (single isomer, unassigned) [Isomer 2] = 4
• Cc1c(CN(C)C(=O)C=Cc2cnc3c(c2)CC2(CC(N)C2)C(=O)N3)oc2ccccc12 (mixture of isomers) [(±)-6] = 32
• Cc1c(CN(C)C(=O)/C=C/c2cnc3c(c2)CC2(CNC2)C(=O)N3)oc2ccccc12 [Compound 5] = 16
• Cc1c(CN(C)C(=O)/C=C/c2cnc3c(c2)CC(CCNC(=O)OC(C)(C)C)C(=O)N3)oc2ccccc12 (stereo not shown) = 16
• Cc1c(CN(C)C(=O)/C=C/c2cnc3c(c2)CC2(CNC2)C(=O)N3)oc2ccccc12 [drawing 106] = 16

Entry Cc1c(CN(C)C(=O)/C=C/c2cnc3c(c2)CCC(N)C(=O)N3)oc2ccccc12 (racemic) [(±)-11] : reported MIC A. baumannii AR 0313 = ?
8

MIC A. baumannii AR 0313 lookup needed for Cc1c(CN(C)C(=O)/C=C/c2cnc3c(c2)CCC(CN)C(=O)N3)oc2ccccc12 (stereo not shown) , thanks.
32

This collection of values is drawn from patent US20240190872A1.
